# assay_protocol: Toxicity liver stage against HepG2, at 10uM
# Format: cell-based
# Design: test concentration 10 uM, cell line HepG2-A16-CD81EGFP
# test_parameters: human, HepG2-A16-CD81EGFP cells; read-out: INHIBITION
List of cytotoxicity at 10 µM values.
Value expressed in %; do not type the unit.

Would you please look over these solved cases?
>>> val("O=C(COC1CCCC1)N1CCC(C(O)c2ccc(F)cc2)CC1 (stereo unspecified)")
6.62
>>> val("CN1CCC(N(C)CCC(=O)N2CCN(Cc3cccc(F)c3)CC2)C1 (stereo unspecified)")
-3.41
>>> val("COc1ccc(N(c2ccc(OC)cc2)c2ccc(C(=O)O)s2)cc1")
18.5
>>> val("O=C(c1ccc[nH]1)N(Cc1ccc(O)cc1)CC1CC1")
8.43

Data request: Return reported cytotoxicity at 10 µM; argument: CC(=O)N1CCC(Cc2ccc(-c3ccnn3C)nc2)CC1
Data returned: 2.74

Data request: Return reported cytotoxicity at 10 µM; argument: O=C(c1ccoc1)N1C[C@@H]2CN(c3ncccn3)C[C@@H]2C1
Data returned: -5.3

Data request: Return reported cytotoxicity at 10 µM; argument: O=C(NCC1CC1)C1CN(C(=O)c2ccnnc2)CC12CCOCC2 (stereo unspecified)
Data returned: 8.21

Data request: Return reported cytotoxicity at 10 µM; argument: O=C1COC2(CCN(Cc3ccccn3)CC2)CN1CC1CC1
Data returned: 13.9

Data request: Return reported cytotoxicity at 10 µM; argument: Cc1ccc(-c2nnc(CCC(=O)NCc3cn(C)nc3C)o2)s1
Data returned: -1.31

Data request: Return reported cytotoxicity at 10 µM; argument: CCC(C(=O)NCc1csc(N2CCOCC2)n1)n1cccn1 (stereo unspecified)
Data returned: -2.88

Data request: Return reported cytotoxicity at 10 µM; argument: CCC1=N[C@@]2(CC[C@@H]3CN(C(=O)NCC4CCCCC4)C[C@@H]32)C(=O)N1
Data returned: -70.2

Data request: Return reported cytotoxicity at 10 µM; argument: CNC(=O)NCc1nn(-c2ccccc2)c2c1CCC2
Data returned: -10.8

Data request: Return reported cytotoxicity at 10 µM; argument: Cc1ccc(NC(=O)CN(C)C(=O)c2ccc(-n3cccc3)nc2)nc1
Data returned: 12.4

###

# assay_protocol: Toxicity liver stage against HepG2, at 10uM
# Format: cell-based
# Set-up: test concentration 10 uM, cell line HepG2-A16-CD81EGFP
# test_parameters: human, HepG2-A16-CD81EGFP cells; read-out: INHIBITION
measurement_type: cytotoxicity at 10 µM (%)
Value expressed in %; do not type the unit.

>>> val("O=C(NCCNS(=O)(=O)c1ccc2c(c1)CCCC2)c1ccoc1")
0.743
>>> val("CCc1ccc(CNC(=O)CCNS(=O)(=O)c2cn(C)c(C)n2)s1")
6.13
>>> val("N#CCCN(CC1CCOC1)Cn1ccc(-c2ccsc2)n1 (stereo unspecified)")
-2.68

Data request: Return reported cytotoxicity at 10 µM; argument: Cc1ncc(C(=O)NCCNC(=O)c2ccccc2)s1
Data returned: -3.67

Data request: Return reported cytotoxicity at 10 µM; argument: Cn1cc(C(=O)NCc2cn3c(n2)CN(C2CCOCC2)CC3)cn1
Data returned: 11.2

Data request: Return reported cytotoxicity at 10 µM; argument: CCN(CC(=O)NC(C)C)C(=O)c1ccc(-c2ccsc2)nc1C
Data returned: -0.908
